// data source = patent US10584128B2

Assay system Rho kinase 1 (Homo sapiens); read-out recorded as Ki.

Example entries and their recorded answers appear below.
| molecule | Ki |
| --- | --- |
| COC1CN(Cc2cc3n(n2)C(c2ccc(C(F)(F)F)c(F)c2)C(C(=O)Nc2ccc4cnccc4c2)=C(C)N3)C1 (stereo not drawn) | < 0.05 µM |
| CC1=C(C(=O)Nc2ccc3[nH]ncc3c2)C(c2ccc(F)cc2)n2nc(C(=O)N3CCNCC3)cc2N1 (stereo not drawn) | < 0.05 µM |
| CC1=C(C(=O)Nc2ccc3cnccc3c2)C(c2ccc(C(F)(F)F)c(F)c2)n2nc(CO)cc2N1 (single isomer, unassigned) [Example 65A] | < 0.05 µM |
| CC1=C(C(=O)Nc2ccc3cnccc3c2)C(c2ccc(C(F)(F)F)c(F)c2)n2nc(CN3CCS(=O)(=O)CC3)cc2N1 (stereo not drawn) | < 0.05 µM |
| CCOC(=O)c1cc2n(n1)C(c1ccc(Cl)cc1F)C(C(=O)Nc1ccc3[nH]ncc3c1)=C(C)N2 (single isomer, unassigned) [Example 7B] | < 0.05 µM |

Now consider a different molecule.
Query the reported Ki for Rho kinase 1 (Homo sapiens); item: CC1=C(C(=O)Nc2ccc3[nH]ncc3c2)C(c2ccc(C(F)(F)F)cc2F)n2nnnc2N1 (single isomer, unassigned) [Example 26A]
< 0.05 µM

====

pKi: −log10 of the molar value.
Assay system Rho kinase 1 (Homo sapiens, UniProt Q13464); read-out recorded as pKi.

Example entries and their recorded answers appear below.
| molecule | pKi |
| --- | --- |
| CC1=C(C(=O)Nc2ccc3cnccc3c2)C(c2ccc(C(F)(F)F)c(F)c2)n2nc(C(=O)N(C)CCN3CCCCC3)cc2N1 (single isomer, unassigned) [Example 78A] | 6.30 to 7.30 |
| COCc1cc2n(n1)C(c1ccc(C(F)(F)F)c(F)c1)C(C(=O)Nc1ccc3cnccc3c1)=C(C)N2 (stereo not drawn) | > 7.30 |
| CC1=C(C(=O)Nc2ccc3cnccc3c2)C(c2ccc(C(F)(F)F)c(F)c2)n2nc(CN3CCOCC3)cc2N1 (stereo not drawn) | > 7.30 |

Query the reported pKi for Rho kinase 1 (Homo sapiens, UniProt Q13464); item: CC1=C(C(=O)Nc2ccc3cnccc3c2)C(C2COc3ccccc3O2)n2nc(CO)cc2N1 (single isomer, unassigned) [Example 72D]
6.30 to 7.30

Query the reported pKi for Rho kinase 1 (Homo sapiens, UniProt Q13464); item: CC1=C(C(=O)Nc2cc3cn[nH]c3cc2F)C(c2ccc(C(F)(F)F)c(F)c2)n2nnnc2N1 (single isomer, unassigned) [Example 40B]
6.30 to 7.30

Query the reported pKi for Rho kinase 1 (Homo sapiens, UniProt Q13464); item: CC1=C(C(=O)Nc2ccc3cnccc3c2)C(c2ccc(C(F)(F)F)c(F)c2)n2nc(C(=O)N(C)CCN(C)C)cc2N1 (stereo not drawn)
> 7.30

====

Assay system Rho kinase 1 (Homo sapiens); read-out recorded as Ki.

Example entries and their recorded answers appear below.
| molecule | result |
| --- | --- |
| CC1=C(C(=O)Nc2cc3cn[nH]c3cc2F)C(c2ccc(C(F)(F)F)c(F)c2)n2nnnc2N1 (single isomer, unassigned) [Example 40A] | < 50 nM |
| CCOC(=O)c1cc2n(n1)C(c1ccc(C(F)(F)F)c(F)c1)C(C(=O)Nc1cc3cnccc3s1)=C(C)N2 (stereo not drawn) [Example 41] | > 500 nM |
| CC1=C(C(=O)Nc2ccc3[nH]ncc3c2)C(c2ccc(C(F)(F)F)c(F)c2)n2nnnc2N1 (single isomer, unassigned) [Example 25A] | < 50 nM |
| CC1=C(C(=O)Nc2ccc3cnccc3c2)C(c2ccc(C(F)(F)F)c(F)c2)n2nc(NC(=O)c3ccc(CN(C)C)cc3)cc2N1 (single isomer, unassigned) [Example 137B] | < 50 nM |
| CC1=C(C(=O)Nc2ccc3cnccc3c2)C(C2Cc3ccccc3C2)n2nc(CO)cc2N1 (single isomer, unassigned) [Example 60B] | 50 to 500 nM |

Now consider a different molecule.
// lookup Ki for CC1=C(C(=O)Nc2ccc3cnccc3c2)C(C2Cc3ccccc3C2)n2nc(CO)cc2N1 (single isomer, unassigned) [Example 60A]
< 50 nM

====

Assay system Rho kinase 2 (Homo sapiens, UniProt O75116); read-out recorded as Ki.

Example entries and their recorded answers appear below.
| molecule | Ki |
| --- | --- |
| CC1=C(C(=O)Nc2ccc3cnccc3c2)C(c2ccc(C(F)(F)F)c(F)c2)n2nc(CN3CC(CN(C)C)C3)cc2N1 (centres unmarked) [Example 106] | < 50 nM |
| CC1=C(C(=O)Nc2ccc3cnccc3c2)C(C2Cc3ccccc3C2)n2nc(CN(C)C)cc2N1 (single isomer, unassigned) [Example 124b] | < 50 nM |
| CC1=C(C(=O)Nc2ccc3cnccc3c2)C(c2ccc(C)c(F)c2)n2nc(CN(C)C)cc2N1 (single isomer, unassigned) [Example 110B] | < 50 nM |
| CC1=C(C(=O)Nc2ccc3cnccc3c2)C(c2ccc(C(F)(F)F)c(F)c2)n2nc(CN3CCCC3)cc2N1 (centres unmarked) [Example 102] | < 50 nM |
| CC1=C(C(=O)Nc2ccc3cnccc3c2)C(C2COc3ccccc3O2)n2nc(CO)cc2N1 (single isomer, unassigned) [Example 72D] | 50 to 500 nM |

Query the reported Ki for Rho kinase 2 (Homo sapiens, UniProt O75116); item: CC1=C(C(=O)Nc2ccc3[nH]ncc3c2)C(c2ccc(C(F)(F)F)cc2)n2nc(CN)cc2N1 (centres unmarked) [Example 111]
< 50 nM

Query the reported Ki for Rho kinase 2 (Homo sapiens, UniProt O75116); item: COCc1cc2n(n1)C(c1ccc(C(F)(F)F)cc1)C(C(=O)Nc1ccc3[nH]ncc3c1)=C(C)N2 (centres unmarked) [Example 35]
< 50 nM

Query the reported Ki for Rho kinase 2 (Homo sapiens, UniProt O75116); item: CC1=C(C(=O)Nc2ccc3[nH]ncc3c2)C(c2ccc(F)cc2)n2ncc(C(=O)N3CCN(C)CC3)c2N1 (centres unmarked) [Example 91]
> 500 nM

Query the reported Ki for Rho kinase 2 (Homo sapiens, UniProt O75116); item: CC1=C(C(=O)Nc2ccc3cnccc3c2)C(c2ccc(C(F)(F)F)c(F)c2)n2nc(CN(C)C)cc2N1 (single isomer, unassigned) [Example 94A]
50 to 500 nM

Query the reported Ki for Rho kinase 2 (Homo sapiens, UniProt O75116); item: CC1=C(C(=O)Nc2ccc3[nH]ncc3c2)C(c2ccc(F)cc2)n2nc(CO)cc2N1 (single isomer, unassigned) [Example 71B]
> 500 nM

====

Reported pKi values are given for each entry in this list.
Target: Rho kinase 2 (Homo sapiens)
Sequence (O75116 whole entry): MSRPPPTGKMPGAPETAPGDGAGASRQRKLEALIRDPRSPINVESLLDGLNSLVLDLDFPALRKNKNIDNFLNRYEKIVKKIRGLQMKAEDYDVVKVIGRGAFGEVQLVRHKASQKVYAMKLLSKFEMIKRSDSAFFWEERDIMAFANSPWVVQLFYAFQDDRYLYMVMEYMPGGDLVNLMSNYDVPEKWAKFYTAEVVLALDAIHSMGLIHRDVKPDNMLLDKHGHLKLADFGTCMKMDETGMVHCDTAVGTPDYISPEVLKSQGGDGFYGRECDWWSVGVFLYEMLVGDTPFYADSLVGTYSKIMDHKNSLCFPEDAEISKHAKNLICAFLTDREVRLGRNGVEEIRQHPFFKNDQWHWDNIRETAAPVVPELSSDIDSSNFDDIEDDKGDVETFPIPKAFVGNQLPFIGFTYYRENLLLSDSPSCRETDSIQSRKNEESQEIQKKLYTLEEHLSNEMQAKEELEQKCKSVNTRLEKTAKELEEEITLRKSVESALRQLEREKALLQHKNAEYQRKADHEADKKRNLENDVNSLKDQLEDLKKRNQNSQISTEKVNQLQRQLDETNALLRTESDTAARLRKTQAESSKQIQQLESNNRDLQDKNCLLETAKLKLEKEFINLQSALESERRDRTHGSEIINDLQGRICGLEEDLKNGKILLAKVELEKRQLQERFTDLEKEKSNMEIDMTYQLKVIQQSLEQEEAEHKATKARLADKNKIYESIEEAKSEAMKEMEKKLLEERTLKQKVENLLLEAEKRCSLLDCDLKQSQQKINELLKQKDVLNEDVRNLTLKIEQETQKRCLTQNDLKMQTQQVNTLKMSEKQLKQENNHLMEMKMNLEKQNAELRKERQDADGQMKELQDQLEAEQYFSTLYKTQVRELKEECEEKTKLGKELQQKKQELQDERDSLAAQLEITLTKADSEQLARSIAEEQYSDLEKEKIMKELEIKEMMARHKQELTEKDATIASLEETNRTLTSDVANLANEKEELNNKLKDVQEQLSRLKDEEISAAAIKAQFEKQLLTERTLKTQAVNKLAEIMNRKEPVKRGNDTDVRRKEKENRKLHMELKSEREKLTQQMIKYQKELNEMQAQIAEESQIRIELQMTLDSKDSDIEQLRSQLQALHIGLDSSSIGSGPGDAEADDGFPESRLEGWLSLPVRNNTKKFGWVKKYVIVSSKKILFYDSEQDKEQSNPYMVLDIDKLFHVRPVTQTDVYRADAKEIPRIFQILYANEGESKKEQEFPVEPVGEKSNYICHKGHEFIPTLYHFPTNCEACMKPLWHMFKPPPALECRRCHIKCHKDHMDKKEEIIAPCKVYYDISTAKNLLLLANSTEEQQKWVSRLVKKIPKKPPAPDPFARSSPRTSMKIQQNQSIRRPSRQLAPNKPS
pKi: −log10 of the molar value.

Example entries and their recorded answers appear below.
| compound | pKi |
| --- | --- |
| CCOC(=O)c1cc2n(n1)C(c1ccc(Cl)nc1)C(C(=O)Nc1ccc3[nH]ncc3c1)=C(C)N2 (stereo not drawn) [Example 5] | > 7.30 |
| CC1=C(C(=O)Nc2ccc3cnccc3c2)C(c2cccc(C(F)(F)F)c2)n2nc(CO)cc2N1 (stereo not drawn) [Example 51] | > 7.30 |
| CC1=C(C(=O)Nc2ccc3cnccc3c2)C(C2COc3ccccc3O2)n2nc(CO)cc2N1 (single isomer, unassigned) [Example 72B] | > 7.30 |

Query the reported pKi for Rho kinase 2 (Homo sapiens); item: CC1=C(C(=O)Nc2ccc3cnccc3c2)C(c2ccc(C(F)(F)F)c(F)c2)n2nc(N)cc2N1 (single isomer, unassigned) [130B]
> 7.30

Query the reported pKi for Rho kinase 2 (Homo sapiens); item: CC1=C(C(=O)Nc2ccc3cnccc3c2)C(c2ccc(C)c(F)c2)n2nc(CN(C)C)cc2N1 (single isomer, unassigned) [Example 110A]
6.30 to 7.30

Query the reported pKi for Rho kinase 2 (Homo sapiens); item: CC1=C(C(=O)Nc2cc3cn[nH]c3cc2F)C(c2ccc(C(F)(F)F)c(F)c2)n2nnnc2N1 (single isomer, unassigned) [Example 40B]
6.30 to 7.30

====

Assay system Rho kinase 2 (Homo sapiens); read-out recorded as Ki.

Example entries and their recorded answers appear below.
| molecule | experimental.target | result |
| --- | --- | --- |
| CC1=C(C(=O)Nc2ccc3cnccc3c2)C(c2ccc(C(F)(F)F)c(F)c2)n2nc(CN3CCN(C)CC3)cc2N1 (single isomer, unassigned) [Example 96A] | Rho kinase 2 (Homo sapiens) | 50 to 500 nM |
| CC1=C(C(=O)Nc2ccc3cnccc3c2)C(c2ccc(C(F)(F)F)c(F)c2)n2nc(C3CCN(C(=O)CCN4CCCCC4)CC3)cc2N1 (single isomer, unassigned) [135B] | Rho kinase 2 (Homo sapiens) | < 50 nM |
| CC1=C(C(=O)Nc2ccc3[nH]ncc3c2)C(c2ccc(Cl)nc2)n2nc(C(F)(F)F)cc2N1 (single isomer, unassigned) [Example 32B] | Rho kinase 2 (Homo sapiens) | < 50 nM |
| CC(=O)N1CCN(Cc2cc3n(n2)C(c2ccc(C(F)(F)F)c(F)c2)C(C(=O)Nc2ccc4cnccc4c2)=C(C)N3)CC1 (stereo not drawn) | Rho kinase 2 (Homo sapiens) | < 50 nM |
| CCOC(=O)c1cc2n(n1)C(c1ccc(O)c(F)c1)C(C(=O)Nc1ccc3cnccc3c1)=C(C)N2 (stereo not drawn) | Rho kinase 2 (Homo sapiens) | < 50 nM |

Now consider a different molecule.
Query the reported Ki for Rho kinase 2 (Homo sapiens); item: CC1=C(C(=O)Nc2ccc3cnccc3c2)C(c2ccc(C(F)(F)F)c(F)c2)n2nc(NC(=O)CCN3CCCCC3)cc2N1 (single isomer, unassigned) [131B]
< 50 nM
